Molecular target: human c-Met (HGFR), full length, on the cell surface (human, UniProt P08581 25-1390)
Sequence (P08581 25-1390 limits assumed): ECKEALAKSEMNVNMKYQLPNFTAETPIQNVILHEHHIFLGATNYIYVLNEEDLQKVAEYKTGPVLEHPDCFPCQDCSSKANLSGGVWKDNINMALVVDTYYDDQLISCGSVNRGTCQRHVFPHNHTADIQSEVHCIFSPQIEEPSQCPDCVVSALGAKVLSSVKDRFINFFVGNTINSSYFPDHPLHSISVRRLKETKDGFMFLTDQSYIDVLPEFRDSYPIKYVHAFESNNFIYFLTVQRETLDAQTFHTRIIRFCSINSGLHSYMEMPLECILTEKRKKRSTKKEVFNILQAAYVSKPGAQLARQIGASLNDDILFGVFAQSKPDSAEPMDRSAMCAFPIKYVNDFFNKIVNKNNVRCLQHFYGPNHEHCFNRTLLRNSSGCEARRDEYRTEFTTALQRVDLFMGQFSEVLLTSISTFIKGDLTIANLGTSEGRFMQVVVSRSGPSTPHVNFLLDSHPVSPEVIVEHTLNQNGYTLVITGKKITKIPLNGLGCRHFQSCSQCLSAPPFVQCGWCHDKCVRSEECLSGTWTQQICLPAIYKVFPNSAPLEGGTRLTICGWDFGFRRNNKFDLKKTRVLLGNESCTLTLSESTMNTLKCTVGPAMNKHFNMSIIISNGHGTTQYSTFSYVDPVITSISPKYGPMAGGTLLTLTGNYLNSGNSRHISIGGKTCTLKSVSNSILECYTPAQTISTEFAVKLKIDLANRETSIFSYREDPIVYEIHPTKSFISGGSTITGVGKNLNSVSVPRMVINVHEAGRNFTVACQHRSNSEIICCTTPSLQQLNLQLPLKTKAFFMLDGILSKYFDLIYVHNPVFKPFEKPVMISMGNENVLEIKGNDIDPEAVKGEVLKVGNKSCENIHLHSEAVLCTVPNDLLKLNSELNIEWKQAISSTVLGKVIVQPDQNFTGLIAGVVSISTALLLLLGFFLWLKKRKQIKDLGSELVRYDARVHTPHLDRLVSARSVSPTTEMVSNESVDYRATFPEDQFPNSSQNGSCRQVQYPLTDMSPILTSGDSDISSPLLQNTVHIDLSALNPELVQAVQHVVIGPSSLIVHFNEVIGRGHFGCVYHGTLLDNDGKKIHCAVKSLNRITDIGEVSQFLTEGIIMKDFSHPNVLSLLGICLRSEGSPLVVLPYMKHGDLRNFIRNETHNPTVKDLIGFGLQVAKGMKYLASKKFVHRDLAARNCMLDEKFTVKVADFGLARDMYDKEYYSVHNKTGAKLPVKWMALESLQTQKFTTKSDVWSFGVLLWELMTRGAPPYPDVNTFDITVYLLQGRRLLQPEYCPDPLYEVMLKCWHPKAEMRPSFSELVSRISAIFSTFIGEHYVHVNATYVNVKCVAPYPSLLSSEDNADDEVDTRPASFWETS
Experiment: cell-based or functional assay
Measured Efficacy (%), in vitro cytotoxicity, NCI-H596, +HGF, listed per entry for reference.
outcome-measure: Efficacy (%), in vitro cytotoxicity, NCI-H596, +HGF

binder: ADC2c (antibody, human IgG1, kappa, V domains shown, vc-seco-DUBA linker-drug on the engineered cysteine at HC position 41 (Kabat); DAR 1.7) VH: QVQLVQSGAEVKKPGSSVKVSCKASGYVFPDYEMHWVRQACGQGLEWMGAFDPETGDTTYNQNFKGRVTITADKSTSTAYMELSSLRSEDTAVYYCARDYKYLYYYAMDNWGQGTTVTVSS VL: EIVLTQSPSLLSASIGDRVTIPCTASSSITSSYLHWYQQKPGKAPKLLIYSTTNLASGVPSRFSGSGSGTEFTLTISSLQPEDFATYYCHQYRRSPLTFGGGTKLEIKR
observed-measurement: 32

binder: ADC3b (antibody, human IgG1, kappa, V domains shown, vc-seco-DUBA linker-drug on the engineered cysteine at HC position 41 (Kabat); DAR 1.9, Antibody-drug conjugate of mAb3b; also called mAb3b-vc-seco-DUBA) VH: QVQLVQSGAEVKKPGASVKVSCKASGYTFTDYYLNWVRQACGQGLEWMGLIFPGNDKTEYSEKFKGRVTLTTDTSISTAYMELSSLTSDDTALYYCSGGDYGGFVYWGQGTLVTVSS VL: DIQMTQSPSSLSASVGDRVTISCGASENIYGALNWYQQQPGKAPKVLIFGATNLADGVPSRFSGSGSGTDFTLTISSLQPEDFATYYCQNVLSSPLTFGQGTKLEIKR
observed-measurement: 44

binder: ADC1 (antibody, human IgG1, kappa, V domains shown, vc-seco-DUBA linker-drug on the engineered cysteine at HC position 41 (Kabat); DAR 1.5) VH: EVQLQQSGPELLKPGASVKMSCKASGYIFTDYFMNWVKQSCGKSLEWIGRVNPKNGDITYNQKFRGKATLTVDKSLTTAYMQLNSLTSEDSAVYFCAYDGYYDGMDFWGQGTSVTVSS VL: ENVLTQSPAIMSASPGEKVTMTCRANSSVSSNFLHWYQQKSGASPKLWISSTSNLAFGVPPRFSGSGSGTSYSLTISSVEAEDAATYYCHQYSGHPFTFGSGTKLEIKR
observed-measurement: 29
